target desc: USP7 (Homo sapiens)
Construct: full length human USP7 protein
Sequence (Q93009 whole entry): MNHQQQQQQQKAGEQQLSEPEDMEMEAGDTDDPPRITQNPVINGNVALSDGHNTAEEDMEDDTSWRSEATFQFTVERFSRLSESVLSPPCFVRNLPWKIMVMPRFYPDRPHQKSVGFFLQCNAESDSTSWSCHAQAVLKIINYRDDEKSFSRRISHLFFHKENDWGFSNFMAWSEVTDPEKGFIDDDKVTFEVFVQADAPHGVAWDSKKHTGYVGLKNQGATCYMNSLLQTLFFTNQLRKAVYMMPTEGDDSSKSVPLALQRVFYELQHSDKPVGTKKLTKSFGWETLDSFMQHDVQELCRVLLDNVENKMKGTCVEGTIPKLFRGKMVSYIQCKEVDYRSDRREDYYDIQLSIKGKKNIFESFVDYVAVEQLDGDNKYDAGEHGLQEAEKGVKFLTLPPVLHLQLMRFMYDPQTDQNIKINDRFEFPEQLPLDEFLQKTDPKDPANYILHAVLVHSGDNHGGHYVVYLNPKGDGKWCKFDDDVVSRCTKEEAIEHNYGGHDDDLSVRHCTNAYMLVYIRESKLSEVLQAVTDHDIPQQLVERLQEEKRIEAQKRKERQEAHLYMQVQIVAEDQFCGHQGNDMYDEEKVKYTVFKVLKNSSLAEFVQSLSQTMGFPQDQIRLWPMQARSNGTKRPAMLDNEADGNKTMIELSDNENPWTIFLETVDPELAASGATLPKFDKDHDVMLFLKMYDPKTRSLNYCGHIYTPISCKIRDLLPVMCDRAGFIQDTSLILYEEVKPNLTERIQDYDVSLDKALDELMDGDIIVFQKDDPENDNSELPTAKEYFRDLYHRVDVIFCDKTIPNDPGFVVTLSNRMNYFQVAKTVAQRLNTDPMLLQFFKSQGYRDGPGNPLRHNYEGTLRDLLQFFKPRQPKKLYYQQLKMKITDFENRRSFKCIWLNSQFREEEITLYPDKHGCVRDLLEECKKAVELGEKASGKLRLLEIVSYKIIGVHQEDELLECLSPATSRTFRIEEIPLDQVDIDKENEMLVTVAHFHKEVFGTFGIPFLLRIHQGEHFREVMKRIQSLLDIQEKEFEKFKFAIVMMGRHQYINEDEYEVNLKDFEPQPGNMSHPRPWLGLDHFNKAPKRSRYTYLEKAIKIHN
assay: USP7, Ub-PLA2 assay
run parameters: Ub-PLA2 / NBD C6-HPC fluorescence, 30 minute preincubation; read-out: EC50 for inhibition of USP7
observation type: EC50

>>> result("O=C(NCCCN1CCCC(O)C1)c1cc([N+](=O)[O-])c(Sc2c(Cl)cncc2Cl)s1 (centres unmarked)")
"1 to 10 µM"
>>> result("CC(=O)c1cc([N+](=O)[O-])c(Sc2ccc3ccccc3c2)s1")
"> 10 µM"
>>> result("CC(=O)c1cc(I)c(Sc2ccc(Cl)cc2Cl)s1")
"> 10 µM"
>>> result("CN(C)CCC(O)c1cc([N+](=O)[O-])c(Sc2ccc(Cl)cc2Cl)s1 (centres unmarked)")
"1 to 10 µM"
>>> result("O=C(NCC(=O)N1CCCCC1)c1cc([N+](=O)[O-])c(Sc2c(Cl)cncc2Cl)s1")
"1 to 10 µM"
>>> result("CN1CCC(NC(=O)c2cc([N+](=O)[O-])c(Sc3c(Cl)cncc3Cl)s2)CC1")
"≤ 1 µM"

Data request: Requested field: EC50. Item: O=C(NCCCN1CCCC1=O)c1cc([N+](=O)[O-])c(Sc2ccc(Cl)cc2Cl)s1
Data returned: 1 to 10 µM

Data request: Also need O=C(NC1CCNCC1)c1cc([N+](=O)[O-])c(Sc2c(Cl)cncc2Cl)s1 , thanks.
Data returned: ≤ 1 µM
